Experiment description: AUC in Wistar rat at 3 mg/kg, iv
Format: ADME, organism-based
Assay setup: in vivo
Readout label: AUC

                         chemical_structure  readout_label  experimental_value
0  C/C(=C\COc1ccccc1CN(C)C(=O)c1ccc(-c2ccco2)cc1)CCC(=O)O            AUC        4650 ng·h/mL

###

Experiment description: Thermodynamic solubility of the compound
Assay type: physicochemical
Assay setup: read-out: Therm_solubility
Readout label: solubility thermodynamic

In [3]: df
Out[3]:
                         chemical_structure  experimental_value
0  C/C(=C\COc1ccccc1CN(C)C(=O)c1ccc(-c2ccco2)cc1)CCC(=O)O              190 µM
